studyTarget: T1, human IL-36R (human, UniProt Q9HB29 20-575)
T1 sequence (looked up): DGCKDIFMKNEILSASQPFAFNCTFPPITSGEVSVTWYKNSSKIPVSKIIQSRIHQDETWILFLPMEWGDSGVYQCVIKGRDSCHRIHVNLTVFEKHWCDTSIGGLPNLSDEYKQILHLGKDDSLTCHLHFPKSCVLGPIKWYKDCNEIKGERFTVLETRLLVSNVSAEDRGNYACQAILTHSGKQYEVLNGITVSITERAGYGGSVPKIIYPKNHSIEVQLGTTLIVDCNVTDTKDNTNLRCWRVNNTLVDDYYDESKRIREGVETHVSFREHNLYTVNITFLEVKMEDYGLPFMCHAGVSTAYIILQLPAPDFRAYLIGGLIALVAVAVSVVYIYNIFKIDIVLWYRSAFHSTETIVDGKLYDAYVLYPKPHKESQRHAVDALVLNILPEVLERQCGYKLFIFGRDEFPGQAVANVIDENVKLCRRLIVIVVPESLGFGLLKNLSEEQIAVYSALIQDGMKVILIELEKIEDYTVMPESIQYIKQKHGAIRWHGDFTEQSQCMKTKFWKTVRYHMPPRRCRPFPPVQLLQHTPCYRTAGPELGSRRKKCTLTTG
assayExplanation: cell-based or functional assay
measuredMetric: IC50, IL-6 release under IL-36 γ stimulation (NCI/ADR-RES cells)
Phrase the answer as number then unit, nothing more needed.

INSERT INTO assay_data (binder, experimentalresult) VALUES
  ('humanized anti-IL-36R antibody 900534 (antibody, V domains shown, IgG1 (human IgG1 L234A/L235A, human kappa)) VH: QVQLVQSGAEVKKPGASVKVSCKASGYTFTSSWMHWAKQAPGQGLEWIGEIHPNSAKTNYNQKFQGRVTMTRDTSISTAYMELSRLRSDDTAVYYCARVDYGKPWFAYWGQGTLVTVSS VL: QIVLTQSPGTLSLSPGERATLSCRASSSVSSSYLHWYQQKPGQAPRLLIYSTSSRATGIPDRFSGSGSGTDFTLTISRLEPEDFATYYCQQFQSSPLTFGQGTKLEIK', '0.0176 µg/mL'),
  ('humanized anti-IL-36R antibody 900513 (antibody, V domains shown, IgG1; built from the chimeric expression plasmids (human IgG1 L234A/L235A, human kappa)) VH: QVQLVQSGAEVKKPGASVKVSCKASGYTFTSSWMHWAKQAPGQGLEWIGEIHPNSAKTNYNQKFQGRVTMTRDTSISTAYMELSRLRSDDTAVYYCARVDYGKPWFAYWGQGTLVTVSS VL: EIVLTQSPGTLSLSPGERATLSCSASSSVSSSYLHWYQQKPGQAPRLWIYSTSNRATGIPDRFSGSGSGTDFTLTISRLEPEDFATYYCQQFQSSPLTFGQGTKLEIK', '0.0121 µg/mL'),
  ('humanized anti-IL-36R antibody 900527 (antibody, V domains shown, IgG1 (human IgG1 L234A/L235A, human kappa); also called HB0034) VH: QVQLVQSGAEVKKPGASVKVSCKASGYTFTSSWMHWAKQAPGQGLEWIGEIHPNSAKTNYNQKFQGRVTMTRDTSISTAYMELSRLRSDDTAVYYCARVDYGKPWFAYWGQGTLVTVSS VL: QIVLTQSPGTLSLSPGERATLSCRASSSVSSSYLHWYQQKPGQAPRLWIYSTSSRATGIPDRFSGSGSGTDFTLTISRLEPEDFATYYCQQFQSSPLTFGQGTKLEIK', '0.0162 µg/mL');

Shifting focus to the binder that follows.
Lookup: Returns the measured IC50, IL-6 release under IL-36 γ stimulation (NCI/ADR-RES cells) for the input binder. Input: anti-IL-36R chimeric antibody 900497 (antibody, V domains shown, Human-mouse chimera: human IgG1 heavy-chain constant region with L234A and L235A (Eu numbering), human kappa constant region) VH: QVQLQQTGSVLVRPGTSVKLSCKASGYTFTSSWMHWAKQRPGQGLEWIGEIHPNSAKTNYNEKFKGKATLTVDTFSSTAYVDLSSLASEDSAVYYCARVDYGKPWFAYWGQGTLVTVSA VL: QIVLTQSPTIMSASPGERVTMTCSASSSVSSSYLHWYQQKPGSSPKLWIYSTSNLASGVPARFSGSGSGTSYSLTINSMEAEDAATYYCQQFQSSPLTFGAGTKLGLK
Found: 0.0198 µg/mL
